meta.source: ChEMBL document CHEMBL1201862

Tested on: U-251
Assay: NCI tumour cell line growth inhibition, 48 h
Calls of active or inactive are those of the source. Rule as the data show it: active = GI50 up to about 1.1 µM and inactive = higher.
experimental.endpoint: GI50

The cases that follow already have their GI50 on record.
- molecule: "COc1cc(NCC(C#N)C#N)ccc1/N=N/c1ccc(Cl)cc1"
  GI50: "18.5 µM (inactive)"
- molecule: "CCOC(=O)COc1ccc(OCC(=O)OCC)c2c1C(=O)CCCC2=O"
  GI50: "> 100 µM (inactive)"
- molecule: "C#CCOC(=O)C=[N+]=[N-]"
  GI50: "> 10 µM (inactive)"

In: Find the recorded GI50 belonging to COc1ccc2nc(-c3cccs3)cc(C(O)CN3CCSCC3)c2c1 (stereo not drawn) and report it.
Out: 19.2 µM (inactive)
